# testDescription: In vitro inhibitory potency was measured against phenylethanolamine N-methyl-transferase
Listing: IC50 of selected compounds
Kindly answer with a numeric value in µM, unit omitted.

| compound | IC50 / µM |
| --- | --- |
| NCc1cccc(Cl)c1 | 9 |

Next up:
Data request: What IC50 value was documented for this compound, CC(N)Cc1ccc(Cl)cc1 (configuration not stated) ?
Data returned: 300
